Sourced from patent US11690860B2

# ASSAY TEXT: Plasma pharmacokinetics of Compound 1 and metabolite 1-7 (LC-MS/MS) in Parts C, D and E
# Type: in vivo, human
# MEASUREMENT CONTEXT: human, in vivo, 600 mg/d, steady state; Part D, NC GT3, 600 mg/d Compound 2 QD, n=6; read-out: T1/2 SS (converted)
TEST READOUT: half-life (min)
Field format: number, assumed min, no unit text.

Consider CNc1nc(N)nc2c1ncn2[C@@H]1O[C@H](CO[P@@](=O)(N[C@@H](C)C(=O)OC(C)C)Oc2ccccc2)[C@@H](O)[C@@]1(C)F . Its measured half-life is 49.8

* * *

# ASSAY TEXT: Plasma pharmacokinetics of Compound 1 and metabolite 1-7 (LC-MS/MS) in Parts C, D and E
# Assay type: in vivo, human
# MEASUREMENT CONTEXT: human, in vivo, 150 mg/d, steady state; Part C, NC GT1b, 150 mg/d Compound 2 QD, n=6; read-out: T1/2 SS (converted)
TEST READOUT: half-life (min)
Field format: number, assumed min, no unit text.

Consider CNc1nc(N)nc2c1ncn2[C@@H]1O[C@H](CO[P@@](=O)(N[C@@H](C)C(=O)OC(C)C)Oc2ccccc2)[C@@H](O)[C@@]1(C)F . Its measured half-life is 38.4

* * *

# ASSAY TEXT: Plasma pharmacokinetics of Compound 1 and metabolite 1-7 (LC-MS/MS) in Parts C, D and E
# Assay type: in vivo, human
# MEASUREMENT CONTEXT: human, in vivo, 600 mg/d, Part C, NC GT1b, 600 mg/d Compound 2 QD, n=6; read-out: T1/2 Day 1 (converted)
TEST READOUT: half-life (min)
Field format: number, assumed min, no unit text.

Consider CNc1nc(N)nc2c1ncn2[C@@H]1O[C@H](CO[P@@](=O)(N[C@@H](C)C(=O)OC(C)C)Oc2ccccc2)[C@@H](O)[C@@]1(C)F . Its measured half-life is 51.6

* * *

# ASSAY TEXT: Plasma pharmacokinetics of Compound 1 and metabolite 1-7 (LC-MS/MS) in Parts C, D and E
# Type: in vivo, human
# MEASUREMENT CONTEXT: human, plasma, oral, 600 mg/d, steady state; Part C, NC GT1b, 600 mg/d Compound 2 QD, n=6; read-out: T1/2 SS (converted)
TEST READOUT: half-life (h)
Field format: number, assumed h, no unit text.

Consider C[C@@]1(F)[C@H](O)[C@@H](CO)O[C@H]1n1cnc2c(=O)[nH]c(N)nc21 [Metabolite 1-7] . Its measured half-life is 28.9

* * *

# ASSAY TEXT: Plasma pharmacokinetics of Compound 1 and metabolite 1-7 (LC-MS/MS) in Parts C, D and E
# Type: in vivo, human
# MEASUREMENT CONTEXT: human, plasma, 300 mg, AUC of metabolite 1-7, range for the dose, 300 mg Compound 2 QD 7 days (FIG. 7)
TEST READOUT: AUC

Consider C[C@@]1(F)[C@H](O)[C@@H](CO)O[C@H]1n1cnc2c(=O)[nH]c(N)nc21 [Metabolite 1-7] . Its measured AUC is 1300 to 2580 ng·h/mL

* * *

# ASSAY TEXT: Plasma pharmacokinetics of Compound 1 and metabolite 1-7 (LC-MS/MS) in Parts C, D and E
# Format: in vivo, human
# MEASUREMENT CONTEXT: human, plasma, oral, 600 mg/d, steady state; Part E, Child-Pugh A cirrhotic, 600 mg/d Compound 2 QD, n=6; read-out: T1/2 SS (converted)
TEST READOUT: half-life (h)
Field format: number, assumed h, no unit text.

Consider C[C@@]1(F)[C@H](O)[C@@H](CO)O[C@H]1n1cnc2c(=O)[nH]c(N)nc21 [Metabolite 1-7] . Its measured half-life is 24.4

* * *

# ASSAY TEXT: Plasma pharmacokinetics of Compound 1 and metabolite 1-7 (LC-MS/MS) in Parts C, D and E
# Type: in vivo, human
# MEASUREMENT CONTEXT: human, in vivo, 600 mg/d, steady state; Part D, NC GT3, 600 mg/d Compound 2 QD, n=6; read-out: Cmax SS
# Procedure: Doses were administered as the Compound 2 salt base. The free base Compound 1 equivalent is often given in parenthesis. Part C was a randomized, double-blind, placebo-controlled MAD study divided into three cohorts. […] HCV-infected patients were treatment-naïve with HCV RNA ≥5 log 10 IU/mL. HCV RNA was quantified using COBAS® AmpliPrep TaqMAN® v2.0 with LLQ of 15 IU/mL. Plasma drug levels were measured using LC-MS/MS. […] Plasma levels of metabolite 1-7 were measured using LC-MS/MS.
TEST READOUT: Cmax (ng/mL)
Field format: number, assumed ng/mL, no unit text.

Consider CNc1nc(N)nc2c1ncn2[C@@H]1O[C@H](CO[P@@](=O)(N[C@@H](C)C(=O)OC(C)C)Oc2ccccc2)[C@@H](O)[C@@]1(C)F . Its measured Cmax is 4140

* * *

# ASSAY TEXT: Plasma pharmacokinetics of Compound 1 and metabolite 1-7 (LC-MS/MS) in Parts C, D and E
# Type: in vivo, human
# MEASUREMENT CONTEXT: human, plasma, 600 mg, AUC of metabolite 1-7, range for the dose, 600 mg Compound 2 QD 7 days (FIG. 7)
TEST READOUT: AUC

Consider C[C@@]1(F)[C@H](O)[C@@H](CO)O[C@H]1n1cnc2c(=O)[nH]c(N)nc21 [Metabolite 1-7] . Its measured AUC is 2250 to 5380 ng·h/mL

* * *

# ASSAY TEXT: Plasma pharmacokinetics of Compound 1 and metabolite 1-7 (LC-MS/MS) in Parts C, D and E
# Type: in vivo, human
# MEASUREMENT CONTEXT: human, in vivo, 600 mg/d, Part E, Child-Pugh A cirrhotic, 600 mg/d Compound 2 QD, n=6; read-out: T1/2 Day 1 (converted)
# Experimental: Doses were administered as the Compound 2 salt base. The free base Compound 1 equivalent is often given in parenthesis. Part C was a randomized, double-blind, placebo-controlled MAD study divided into three cohorts. […] HCV-infected patients were treatment-naïve with HCV RNA ≥5 log 10 IU/mL. HCV RNA was quantified using COBAS® AmpliPrep TaqMAN® v2.0 with LLQ of 15 IU/mL. Plasma drug levels were measured using LC-MS/MS. […] Plasma levels of metabolite 1-7 were measured using LC-MS/MS.
TEST READOUT: half-life (min)
Field format: number, assumed min, no unit text.

Consider CNc1nc(N)nc2c1ncn2[C@@H]1O[C@H](CO[P@@](=O)(N[C@@H](C)C(=O)OC(C)C)Oc2ccccc2)[C@@H](O)[C@@]1(C)F . Its measured half-life is 51.6
